Give cytotoxicity at 70.5 h for every item shown.
- measurement-protocol: Human HepG2 cell viability assay in 384 well format
- Assay type: toxicity, cell-based
- Design: dose 125 nL, time 70.5 hour; concentration not given beside the values
- settings: HepG2 cells, read-out: Inhibition
Express it in %; write the number only.

Ask: Specify reported cytotoxicity at 70.5 h for the compound shown: CSCCNC(=O)c1coc(COc2ccc3sc(C)nc3c2)n1
Reply: -13.9

Ask: Please give the documented cytotoxicity at 70.5 h of CCc1nnsc1C(=O)N1CCCC1c1c(C)nn(C)c1OC (configuration not stated)
Reply: 13.9

Ask: Consider the compound O=C1CC(c2ccco2)c2sc(C(=O)O)c(-c3ccccc3)c2N1 (configuration not stated) . State its measured cytotoxicity at 70.5 h.
Reply: -13.5

Ask: Answer with reported cytotoxicity at 70.5 h of CC(Cn1ccnc1)NCc1cc(Br)c2c(c1)OCO2 (configuration not stated)
Reply: 12.5

Ask: Look up and report measured cytotoxicity at 70.5 h for this entry: Cn1cc(-c2nc3c(cc2C(=O)O)CCN(C(=O)C2CC2)CC3)cn1
Reply: -7.13

Ask: Identify measured cytotoxicity at 70.5 h corresponding to CN(C)C(=O)N1CCCC2(CCN(Cc3ccncc3)C2)C1 (configuration not stated)
Reply: -7.12

Ask: Dear colleague, please send me the reported cytotoxicity at 70.5 h for CCN1CCCN(C(=O)c2cnc(OC(C)C)c(Cl)c2)CC1 when you can.
Reply: 9.31

Ask: In one line, give reported cytotoxicity at 70.5 h of the entry O=C(C1CCCC1)N1CC2(CCN(C3COC3)C2)Cc2ccccc21 (configuration not stated) .
Reply: -10.8

Ask: Report measured cytotoxicity at 70.5 h; entry is CC(=O)NC1CCN(c2nc(N)nc3c2CCCC3)C1 (configuration not stated)
Reply: -8.84

Ask: Indicate its recorded cytotoxicity at 70.5 h; the compound in question is CCn1cc2c(n1)CN(Cc1ccncc1)CC2COCC1CC1 (configuration not stated)
Reply: -17.6

Ask: Hello, please tell me recorded cytotoxicity at 70.5 h for this one: CNc1ncc(CN(C)C(=O)c2cccc(-n3cccn3)c2)cn1
Reply: -6.94

Ask: Complete the entry with cytotoxicity at 70.5 h for COc1ccc(-c2cc(C3CC3)c(C#N)c(N)n2)cc1F
Reply: 11.2

Ask: Return cytotoxicity at 70.5 h for the following compound: CNc1nc(N2CCC3(CCCNC3=O)C2)nc2c1CCC2 (configuration not stated)
Reply: -6.8

Ask: For O=C(NCCc1c[nH]cn1)c1ccc(S(=O)(=O)NC2CCCC2)cc1 , write its cytotoxicity at 70.5 h.
Reply: -1.62

Ask: Note cytotoxicity at 70.5 h for the compound shown: CN(C)CC1CN(Cc2nc(-c3cccnc3)no2)CCO1 (configuration not stated)
Reply: -12.3

Ask: Answer with the recorded cytotoxicity at 70.5 h of O=C1CCCc2nccc(-c3ccccc3)c21 only.
Reply: 23.5

Ask: Annotate the compound CN1C(=O)CC(c2cnn(C)c2)C12CCN(CC1CCOCC1)CC2 (configuration not stated) with its measured cytotoxicity at 70.5 h.
Reply: -9.88

Ask: Identify the reported cytotoxicity at 70.5 h for the following entry. CCCc1cc(NC2CCc3ncnn3C2)n2ncnc2n1 (configuration not stated)
Reply: 0.783

Ask: Item CC1(C)CN(CC(O)C(C)(C)C)C(=O)CN(C(=O)c2ccccc2)C1 (configuration not stated) : provide cytotoxicity at 70.5 h
Reply: -4.32

Ask: Identify measured cytotoxicity at 70.5 h associated with CN1CCN(C[C@@H]2CN(Cc3c(Cl)cncc3Cl)C[C@@H]2CO)CC1
Reply: -11.7

Ask: Answer with the recorded cytotoxicity at 70.5 h of COC1CC2(CCN(Cc3nccn3C)CC2)C1 only.
Reply: -5.43

Ask: State its cytotoxicity at 70.5 h: CC(C)(C)CN1CCC(c2nccnc2Nc2cnccn2)CC1
Reply: -1.64

Ask: Annotate the compound CN(Cc1csc(-c2ccccc2)n1)C(=O)CCNS(C)(=O)=O with its measured cytotoxicity at 70.5 h.
Reply: -8.29

Ask: Note down cytotoxicity at 70.5 h recorded for CCn1c(C2CCCN(Cc3nccn3CCOC)C2)nn(C)c1=O (configuration not stated)
Reply: -11.9

Ask: Look up and report measured cytotoxicity at 70.5 h for this entry: CCOC(=O)N1CCN(C(=O)Cn2ccc3ncccc3c2=O)CC1
Reply: -8.19

Ask: Fill in cytotoxicity at 70.5 h for record CCOc1ccc(CN2CCCC(c3nn(C)c(=O)n3CC)C2)cn1 (configuration not stated)
Reply: -6.89

Ask: Fill in cytotoxicity at 70.5 h for record COCCN1C(=O)[C@H]2CC[C@@H]1CN(C(=O)CCc1n[nH]c(C)c1C)C2
Reply: -13.9

Ask: Please supply the value of reported cytotoxicity at 70.5 h for the item Cc1ccc(CN(C)CC(=O)NC2(C)CCS(=O)(=O)C2)cc1 (configuration not stated)
Reply: -3.98

Ask: Answer with the recorded cytotoxicity at 70.5 h for the compound listed here: Cc1cnc2c(c1NCc1ccncc1)c(=O)n(C)c(=O)n2C
Reply: -2.95

Ask: Kindly indicate its recorded cytotoxicity at 70.5 h. Item: c1ccc2c(c1)ccn2CCCNC1CCOC2(CCOCC2)C1 (configuration not stated)
Reply: 32.9

Ask: Answer with reported cytotoxicity at 70.5 h of CCCn1nc2c(cc1=O)CN(CCCN1CCCC1=O)CC2
Reply: 7.69

Ask: Fill in reported cytotoxicity at 70.5 h for this entry: CCOC(=O)N1CCN(CC(=O)Nc2ccc(F)cc2Cl)CC1
Reply: -8.51

Ask: Find the measured cytotoxicity at 70.5 h of COc1ncnc2c1CCN(C(=O)NCc1cccc(F)c1)CC2 and report it.
Reply: -6.04

Ask: Answer with reported cytotoxicity at 70.5 h of COC(=O)c1ccc(N2CCN(C(=O)C(C)C)C(C)C2)cc1 (configuration not stated)
Reply: 26.6

Ask: Please supply the value of reported cytotoxicity at 70.5 h for the item CN1CCC2(CCN(S(=O)(=O)c3ccc(-c4cnco4)s3)CC2)C1
Reply: -8.53

Ask: Tell us which cytotoxicity at 70.5 h value is on record for O=C1CC2(CCN(Cc3ccoc3)CC2)CN1Cc1cc(F)cc(F)c1
Reply: -6.12

Ask: Tell me its cytotoxicity at 70.5 h given CC(=O)N[C@@H]1CN(Cc2nnc(-c3ccccc3)o2)C[C@H]1C(C)C as the entry.
Reply: -16.1

Ask: Specify reported cytotoxicity at 70.5 h for the compound shown: CO[C@@H]1CC[C@H]2[C@H]1OCCN2C(=O)C1CCOCC1
Reply: -15

Ask: Fill in cytotoxicity at 70.5 h for record Cc1nccn1-c1ccc(C(=O)NCC(F)(F)F)nn1
Reply: -1.99

Ask: Please report the measured cytotoxicity at 70.5 h for Cc1cc(C(=O)N2CC[C@@H](N(C)C)[C@@H]2Cc2ccccc2)no1
Reply: -0.0942

Ask: # return recorded cytotoxicity at 70.5 h for entry COc1cccc(OC)c1CN1CC(=O)N(c2ccc(C)cc2)CC1C (configuration not stated)
Reply: 1.44

Ask: Give a short answer stating reported cytotoxicity at 70.5 h for Cc1cn([C@H]2CCNC[C@]2(C)O)c(=O)[nH]c1=O .
Reply: 4.8

Ask: Tell us which cytotoxicity at 70.5 h value is on record for Nc1ncc(-c2ccc(Cl)cc2)c(C2CCCNC2)n1 (configuration not stated)
Reply: 37.3

Ask: Consider the compound COCCN1CCC(Cc2cncc(-c3ccc(C(=O)O)cc3)n2)C1 (configuration not stated) . State its measured cytotoxicity at 70.5 h.
Reply: -11.8

Ask: # return recorded cytotoxicity at 70.5 h for entry Cc1ccc(OCCN2CCC(c3ccnn3CCO)CC2)cc1
Reply: 3.29

Ask: In one line, give reported cytotoxicity at 70.5 h of the entry CN(C)C(=O)CNC(CC(F)(F)F)c1ccc(F)cc1 (configuration not stated) .
Reply: 7.18

Ask: Tell me cytotoxicity at 70.5 h reported for NC(=O)c1cc(C2CCCN(CCOCC3CC3)C2)n[nH]1 (configuration not stated)
Reply: -1.45
